Values were extracted from patent US7495104B2.

For each entry below, report its pIC50 value.
Target: UniProtKB P21802
Assay: Inhibitory activity against Bek-autophosphorylation using ELISA method in OCUM-2MD3 cells
Conditions: 1 hr with compound, read-out: IC50 (concentration necessary for inhibiting 50% of Bek-phosphorylation)
Method: Human scirrhus stomach cancer cells OCUM-2MD3 (kindly provided by Dr. Kosei Hirakawa, Osaka City University) were cultured in an RPMI medium containing 10% fetal calf serum (purchased from ICN) within a 5% carbon dioxide incubator until 50 to 90% confluent. The harvested cells were seeded onto 96-well flat-bottom plate in RPMI containing 0.1% fetal calf serum at 3.5×10^4 cells per well, followed by cultivation at 37° C. overnight. […]
Structures can show the parent of a compound that is named as a salt.
On this scale, pIC50 is minus log10 of a concentration expressed in M (mol/L).

[ask] # input compound: `COc1cc2c(Oc3ccc(NC(=O)NCCC(C)(C)C)c(Cl)c3)ccnc2cc1OCCCN(CCO)CCO` ; wanted: its pIC50
[reply] 8.04

[ask] Any idea what pIC50 was measured for COc1cc2c(Oc3ccc(NC(=O)NCCC(C)(C)C)cc3)ccnc2cc1OCCN1CCCCC1 [Compound 91, hydrochloride] ?
[reply] 7.74

[ask] What measured pIC50 goes with `COc1cc2nccc(Oc3ccc(NC(=O)NCCC(C)(C)C)cc3)c2cc1OCCCCN(C)C` ?
[reply] 7.41

[ask] // query pIC50 value for entry `COc1cc2c(Oc3ccc(NC(=O)NCCC(C)(C)C)c(F)c3)ccnc2cc1OCCCN1CCC(CO)CC1`
[reply] 7.66

[ask] Would you kindly share the measured pIC50 for `COc1cc2c(Oc3ccc(Nc4ccc(C(C)(C)C)cc4)c(Cl)c3)ccnc2cc1OCCN1CCC(O)CC1` ?
[reply] 5.95

[ask] For `COc1cc2c(Oc3ccc(NC(=O)NCCC(C)(C)C)c(Cl)c3)ccnc2cc1OCc1ccccc1` , what is its reported pIC50?
[reply] 6.43

###

Target: Bek (Homo sapiens)
Experiment: Inhibitory activity against Bek-autophosphorylation using ELISA method in OCUM-2MD3 cells
Assay type: cell-based
Conditions: 1 hr with compound, read-out: IC50 (concentration necessary for inhibiting 50% of Bek-phosphorylation)
Field: IC50. Provide a value for each of the compounds that follow.
# number only, unit nM dropped from output

[ask] Would you mind telling me what IC50 value was observed for COc1cc2nccc(Oc3ccc(Nc4ccc(OC(F)(F)F)cc4)cc3)c2cc1OC [Compound 6] ?
[reply] 875

[ask] What value of measured IC50 is listed for COc1cc2c(Oc3ccc(Nc4ccc(C(C)(C)C)cc4)c(F)c3)ccnc2cc1OCCN1CCC(O)CC1 [Compound 287] ?
[reply] 254

[ask] For the compound COc1cc2c(Oc3ccc(NC(=O)NCCC(C)(C)C)cc3)ccnc2cc1OCCN1CC(C)CC(C)C1 (stereo not shown) [Compound 120] , what IC50 is on record?
[reply] 21

[ask] What does the record list as IC50 for COc1cc2c(Oc3ccc(NC(=O)NCCC(C)(C)C)cc3)ccnc2cc1OCCN1CCC(Cc2ccccc2)CC1 [Compound 122] ?
[reply] 151

[ask] // IC50 lookup, key: COc1cc2c(Oc3ccc(Nc4ccc(C(C)(C)C)cc4)cc3)ccnc2cc1OCCCCN1CCCCC1 [Compound 36]
[reply] 247

[ask] Please give the measured IC50 for this compound: COc1cc2c(Oc3ccc(NC(=O)NCCC(C)(C)C)cc3)ccnc2cc1OCC(=O)N1CCOCC1 [Compound 375]
[reply] 28

###

Target: Bek (Homo sapiens)
Test: Inhibitory activity against Bek-autophosphorylation using ELISA method in OCUM-2MD3 cells
Settings: 1 hr with compound, read-out: IC50 (concentration necessary for inhibiting 50% of Bek-phosphorylation)
Method: Human scirrhus stomach cancer cells OCUM-2MD3 (kindly provided by Dr. Kosei Hirakawa, Osaka City University) were cultured in an RPMI medium containing 10% fetal calf serum (purchased from ICN) within a 5% carbon dioxide incubator until 50 to 90% confluent. The harvested cells were seeded onto 96-well flat-bottom plate in RPMI containing 0.1% fetal calf serum at 3.5×10^4 cells per well, followed by cultivation at 37° C. overnight. […]
Where a name gives a salt, the structure may show the parent alone.
Exercise: for every item that follows, state its recorded pIC50.
// pIC50 here means minus log10 of the molar concentration (mol/L)

[ask] Field: pIC50 (Bek (Homo sapiens)). Entry: COc1cc2c(Oc3ccc(NC(=O)NCCC(C)(C)C)cc3)ccnc2cc1OCCCCN1CCOCC1 [Compound 158, hydrochloride]
[reply] 7.49

[ask] Provide value of pIC50 for this record tested with Bek (Homo sapiens): COc1cc2c(Oc3ccc(NC(=O)NCCC(C)(C)C)cc3)ccnc2cc1OCCN(C)CCO [Compound 328]
[reply] 7.43

[ask] Hi! What's the reported pIC50 for COc1cc2c(Oc3ccc(NC(=O)NCCC(C)(C)C)cc3)ccnc2cc1OCC(O)CN1CCC(c2ccccc2)CC1 (stereo not shown) [Compound 252] on Bek (Homo sapiens)?
[reply] 7.37

[ask] So what pIC50 did COc1cc2c(Oc3ccc(Nc4ccc(C(C)(C)C)cc4)cc3)ccnc2cc1OCCN1CCC(CO)CC1 [Compound 81] get with Bek (Homo sapiens)?
[reply] 8.00

[ask] Write down the reported pIC50 of COc1cc2c(Oc3ccc(NC(=O)NCCC(C)(C)C)c(Cl)c3)ccnc2cc1OCCN1CCC(CO)CC1 [Compound 275] , test system: Bek (Homo sapiens).
[reply] 7.50

[ask] Observed pIC50 on Bek (Homo sapiens) for COc1cc2c(Oc3ccc(Nc4ccc(C(C)(C)C)cc4)cc3)ccnc2cc1OCCCN1CCCC1 [Compound 53] , please.
[reply] 7.42

[ask] Field: pIC50 (Bek (Homo sapiens)). Entry: COc1cc2c(Oc3ccc(NC(=O)NCCC(C)(C)C)cc3F)ccnc2cc1OCCCN1CCC(CO)CC1 [Compound 285]
[reply] 7.64

###

I'd be grateful if you could share measured pIC50 for these entries.
Molecular target: Bek (Homo sapiens, UniProt P21802)
Sequence (P21802 431-767 limits assumed): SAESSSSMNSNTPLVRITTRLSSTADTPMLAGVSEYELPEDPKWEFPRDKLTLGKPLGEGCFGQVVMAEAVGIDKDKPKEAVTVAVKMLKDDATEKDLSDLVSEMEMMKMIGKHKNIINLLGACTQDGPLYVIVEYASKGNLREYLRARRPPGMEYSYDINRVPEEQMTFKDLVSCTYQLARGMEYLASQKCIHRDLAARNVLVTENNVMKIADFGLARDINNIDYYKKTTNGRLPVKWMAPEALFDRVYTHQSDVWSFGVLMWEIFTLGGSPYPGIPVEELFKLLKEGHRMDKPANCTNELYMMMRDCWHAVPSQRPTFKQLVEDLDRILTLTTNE
Test: Inhibitory activity against Bek-autophosphorylation using ELISA method in OCUM-2MD3 cells
Conditions: 1 hr with compound, read-out: IC50 (concentration necessary for inhibiting 50% of Bek-phosphorylation)
pIC50 is defined as minus the log10 of a concentration measured in mol/L.

[ask] Returns the measured pIC50 for the input compound. Input: `COc1cc2c(Oc3ccc(NC(=O)NCCC(C)(C)C)c(Cl)c3)ccnc2cc1OCCCNCCO`
[reply] 7.78

[ask] Look at this compound and give its reported pIC50. COc1cc2c(Oc3ccc(Nc4ccc(C(C)(C)C)cc4)cc3)ccnc2cc1OCCN1CC(C)OC(C)C1 (stereo not shown)
[reply] 7.33

[ask] Entry `COc1cc2c(Oc3ccc(NC(=O)NCCC(C)(C)C)c(Cl)c3)ccnc2cc1OCCN1CCCC1` : reported pIC50 = ?
[reply] 7.16

###

Molecular target: Bek (Homo sapiens, UniProt P21802)
Test: Inhibitory activity against Bek-autophosphorylation using ELISA method in OCUM-2MD3 cells
Conditions: 1 hr with compound, read-out: IC50 (concentration necessary for inhibiting 50% of Bek-phosphorylation)
Description: Human scirrhus stomach cancer cells OCUM-2MD3 (kindly provided by Dr. Kosei Hirakawa, Osaka City University) were cultured in an RPMI medium containing 10% fetal calf serum (purchased from ICN) within a 5% carbon dioxide incubator until 50 to 90% confluent. The harvested cells were seeded onto 96-well flat-bottom plate in RPMI containing 0.1% fetal calf serum at 3.5×10^4 cells per well, followed by cultivation at 37° C. overnight. […]
Structures can show the parent of a compound that is named as a salt.
assay-metric: pIC50
// scale note: pIC50 = -log10(conc_M); give the bare number

[ask] So what's the measured pIC50 for this one? COc1cc2nccc(Oc3ccc(NC(=O)NC(C)(C)CC(C)(C)C)cc3)c2cc1OC [Compound 143]
[reply] 6.72

[ask] Give the measured pIC50 of COc1cc2c(Oc3ccc(NC(=O)NCCC(C)(C)C)cc3Cl)ccnc2cc1OCCCN1CCC(O)CC1 [Compound 338] .
[reply] 7.78

[ask] Consider the compound shown here: COc1cc2c(Oc3ccc(NC(=O)NCCC(C)(C)C)cc3)ccnc2cc1OCCCCBr [Compound 148] What is its recorded pIC50?
[reply] 5.78

[ask] Entry COc1cc2c(Oc3ccc(Nc4ccc(C(C)(C)C)cc4)cc3)ccnc2cc1OCCN(C)C [Compound 40] has what pIC50?
[reply] 6.03

[ask] Query (compound): COc1cc2c(Oc3ccc(NC(=O)NCCC(C)(C)C)cc3Cl)ccnc2cc1OCCCN1CCOCC1 [Compound 318] ; field requested: pIC50
[reply] 7.73

[ask] What value of pIC50 has been recorded for this entry: COc1cc2c(Oc3ccc(Nc4ccc(C(C)(C)C)cc4)cc3)ccnc2cc1OCCN1CCC(O)CC1 [Compound 82]
[reply] 7.15

[ask] What value of measured pIC50 is listed for COc1cc2nccc(Oc3ccc(NC(=O)NC(C)(C)CC(C)(C)C)c(Cl)c3)c2cc1OC [Compound 144] ?
[reply] 6.70

[ask] Any idea what pIC50 was measured for COCC1CCN(CCOc2cc3nccc(Oc4ccc(Nc5ccc(C(C)(C)C)cc5)cc4)c3cc2OC)CC1 [Compound 281] ?
[reply] 6.61

[ask] // returns reported pIC50 for input COc1cc2c(Oc3ccc(NC(=O)NCCC(C)(C)C)cc3)ccnc2cc1OCC(=O)O [Compound 221]
[reply] 6.12

[ask] Record request: pIC50 value, item COc1cc2c(Oc3ccc(NC(=O)NCCC(C)(C)C)c(Cl)c3)ccnc2cc1OCCN1CCCCCC1 [Compound 185]
[reply] 7.26

[ask] If you can, please state the reported pIC50 value of COc1cc2c(Oc3ccc(NC(=O)NCCC(C)(C)C)c(F)c3)ccnc2cc1OCCN1CCCCC1 [Compound 99] .
[reply] 7.54

[ask] # query: pIC50 of entry COc1cc2nccc(Oc3ccc(Nc4nc(C)c(C)s4)cc3)c2cc1OC [Compound 75]
[reply] 5.28

[ask] Reported pIC50, compound COc1cc2c(Oc3ccc(NC(=O)NCCC(C)(C)C)cc3Cl)ccnc2cc1OCCN1CC(C)OC(C)C1 (stereo not shown) [Compound 127] : ____
[reply] 8.03

[ask] Fill blank: measured pIC50 of the compound COc1cc2nccc(Oc3ccc(NC(=O)NCCC(C)(C)CC(C)(C)C)c(F)c3)c2cc1OC [Compound 149] is ____.
[reply] 6.66

[ask] Name the recorded pIC50 for COc1cc2c(Oc3ccc(Nc4ccc(C(C)(C)C)cc4)c(F)c3)ccnc2cc1OCCN(CCO)CCO [Compound 335] .
[reply] 7.02

[ask] Which pIC50 is reported for this compound? COc1cc2c(Oc3ccc(Nc4ccc(C(C)(C)C)cc4)c(F)c3)ccnc2cc1OCCCN1CCC(O)CC1 [Compound 289]
[reply] 6.61

[ask] Sample COc1cc2nccc(Oc3ccc(Nc4ccc(C(C)(C)C)cc4)c(C)c3)c2cc1OC [Compound 13] — what was its pIC50?
[reply] 6.55

[ask] Given the entry COc1cc2nccc(Oc3ccc(Nc4ccc(C(C)(C)C)cc4)cc3)c2cc1OCCN(C)CCO [Compound 357] , report its measured pIC50.
[reply] 6.67

[ask] So what does the record say about pIC50 for COc1cc2nccc(Oc3ccc(Nc4ccc(C(C)C)cc4)cc3)c2cc1OC [Compound 9] ?
[reply] 6.50

[ask] Given the entry COc1cc2c(Oc3ccc(Nc4ccc(C(C)(C)C)cc4)cc3)ccnc2cc1OCCN(CCO)CCO [Compound 349, hydrochloride] , report its measured pIC50.
[reply] 7.02

[ask] Would you kindly share the measured pIC50 for COc1cc2c(Oc3ccc(Nc4ccc(C(C)(C)C)cc4)cc3)ccnc2cc1OC[C@H](O)CN1CCOCC1 [Compound 70] ?
[reply] 7.16

[ask] GET /values?readout=pIC50&item= COc1cc2c(Oc3ccc(Nc4ccc(C(C)(C)C)cc4)cc3)ncnc2cc1OCCN1CCOCC1 [Compound 78]
[reply] 6.56

[ask] I would be grateful if you could share the reported pIC50 for COc1cc2nccc(Oc3ccc(NC4CCC(C(C)(C)C)CC4)cc3)c2cc1OC (stereo not shown) [Compound 77] .
[reply] 5.46

[ask] Which measured pIC50 value corresponds to COc1cc2nccc(Oc3ccc(Nc4ccsc4)cc3)c2cc1OC [Compound 73] ?
[reply] 5.45

[ask] I'd like to know its pIC50. The compound in question is COc1cc2c(Oc3ccc(Nc4ccc(C(C)(C)C)cc4)c(F)c3)ccnc2cc1OCCN1CCC(CO)CC1 [Compound 288]
[reply] 6.96

[ask] Tell me the measured pIC50 of COc1cc2c(Oc3ccc(NC(=O)NCCC(C)(C)C)c(Cl)c3)ccnc2cc1OCCN1CCC(CCO)CC1 [Compound 292] , please.
[reply] 7.30

[ask] Sample COc1cc2c(Oc3ccc(NC(=O)NCCC(C)(C)C)c(Cl)c3)ccnc2cc1OCC(O)CN1CCCN(C)CC1 (stereo not shown) [Compound 196] — what was its pIC50?
[reply] 7.76

[ask] Look up pIC50 for this compound: COc1cc2c(Oc3ccc(NC(=O)NCCC(C)(C)C)cc3Cl)ccnc2cc1OCCN1CCC(O)CC1 [Compound 311]
[reply] 7.64

[ask] Need pIC50, item COc1cc2nccc(Oc3ccc(Nc4ccc(C5CCCCC5)cc4)cc3)c2cc1OC [Compound 10]
[reply] 6.20
